Tested on: S. griseolus ATCC 11796
PROCEDURE SUMMARY: Percent conversion of herbicides by cultures (Example 16)
Assay type: in vitro ADME, Streptomyces griseolus
RECORDED CONDITIONS: 3.0 mg herbicide in 25 ml broth; 24 hours
Quick reference for Percent Conversion among some compounds
Form entry: value (%) — number only.

COMPOUND: CN(C)c1nc(=O)n(C2CCCCC2)c(=O)n1C
Percent Conversion / %: 1
--
COMPOUND: CCOC(=O)c1ccccc1S(=O)(=O)NC(=O)Nc1nc(Cl)cc(OC)n1
Percent Conversion / %: 100
--
COMPOUND: Cc1ccc(NC(=O)N(C)C)cc1Cl
Percent Conversion / %: 0

Now look at this one.
Notebook: N#Cc1cc(Br)c(O)c(Br)c1 [compound 10023, 3,5-dibromo-4-hydroxybenzonitrile] , Percent Conversion read as 0

---

Quick reference for concentration in supernatant among some compounds
Tested on: S. lividans pCAO200SU1#12
PROCEDURE SUMMARY: Sulfonylurea metabolism by washed cell suspension (Examples 6-9)
Format: in vitro ADME, Streptomyces lividans
RECORDED CONDITIONS: substrate 10006; 4 h
Form entry: value (nM) — number only.

Look over these answered cases.
COMPOUND SMILES: COC(=O)c1ccccc1S(=O)(=O)NC(=O)Nc1nc(CO)nc(OC)n1
TARGET UNDER TEST: S. lividans pCAO200SU1#12
NUMERIC READOUT: 1000
//
COMPOUND SMILES: COc1nc(C)nc(=NC(=O)NS(=O)(=O)c2ccccc2C(=O)O)[nH]1
TARGET UNDER TEST: S. lividans pCAO200SU1#12
NUMERIC READOUT: 1000
//
COMPOUND SMILES: COC(=O)c1ccccc1S(=O)(=O)NC(=O)Nc1nc(C)nc(O)n1
TARGET UNDER TEST: S. lividans pCAO200SU1#12
NUMERIC READOUT: 2000

Notebook: `COC(=O)c1ccccc1S(=O)(=O)NC(=O)Nc1nc(C)nc(OC)n1` , concentration in supernatant read as 384000

---

Test system: S. griseolus PH2003 pIJ425
PROCEDURE SUMMARY: Percent conversion of herbicides by cultures (Example 16)
Type: in vitro ADME, Streptomyces griseolus
RECORDED CONDITIONS: 3.0 mg herbicide in 25 ml broth; 24 hours
MEASURE: Percent Conversion

Look over these answered cases.
MOLECULE: C[n+]1cccnc1[O-] [compound 10022, 1-methyl-2(1H)-pyrimidinone]
RESULT: 0%
//
MOLECULE: Cc1ccc(NC(=O)N(C)C)cc1Cl [compound 10019, 3-(3-chloro-p-tolyl)-1,1-dimethylurea]
RESULT: 0%

Notebook: CCNc1nc(Cl)nc(NC(C)(C)C#N)n1 [compound 10021] , Percent Conversion read as 7%

Notebook: CCOC(=O)c1ccccc1S(=O)(=O)NC(=O)Nc1nc(Cl)cc(OC)n1 [compound 10001] , Percent Conversion read as 100%

Notebook: COC(=O)C1Cc2c(c(Cl)cc(F)c2N2C(=O)C3=C(CCCC3)C2=O)O1 (stereo not shown) [compound 10020] , Percent Conversion read as 7%

Notebook: CSc1nnc(C(C)(C)C)c(=O)n1N [compound 10018] , Percent Conversion read as 10%

Notebook: CN(C)c1nc(=O)n(C2CCCCC2)c(=O)n1C [compound 10017] , Percent Conversion read as 6%

---

Tested on: S. griseolus PH2003 pCS325
PROCEDURE SUMMARY: Percent conversion of herbicides by cultures (Example 16)
Type: in vitro ADME, Streptomyces griseolus
RECORDED CONDITIONS: 3.0 mg herbicide in 25 ml broth; 24 hours
MEASURE: Percent Conversion (%)
Form entry: value (%) — number only.

Notebook: `CCNc1nc(Cl)nc(NC(C)(C)C#N)n1` , Percent Conversion read as 93

Notebook: `CSc1nnc(C(C)(C)C)c(=O)n1N` , Percent Conversion read as 72

Notebook: `Cc1ccc(NC(=O)N(C)C)cc1Cl` , Percent Conversion read as 9

---

Test system: S. lividans pCAO200SU1#12
PROCEDURE SUMMARY: Sulfonylurea metabolism by washed cell suspension (Examples 6-9)
Type: in vitro ADME, Streptomyces lividans
RECORDED CONDITIONS: substrate 10006; 2 h
Quick reference for concentration in supernatant among some molecules
Form entry: value (nM) — number only.

Look over these answered cases.
MOLECULE: COC(=O)c1ccccc1S(=O)(=O)NC(=O)Nc1nc(CO)nc(OC)n1 [compound 10009]
concentration in supernatant / nM: 0
//
MOLECULE: COC(=O)c1ccccc1S(=O)(=O)NC(=O)Nc1nc(C)nc(OC)n1 [compound 10006]
concentration in supernatant / nM: 376000
//
MOLECULE: COC(=O)c1ccccc1S(=O)(=O)NC(=O)Nc1nc(C)nc(O)n1 [compound 10007]
concentration in supernatant / nM: 2000

Now look at this one.
Notebook: COc1nc(C)nc(=NC(=O)NS(=O)(=O)c2ccccc2C(=O)O)[nH]1 [compound 10008] , concentration in supernatant read as 1000

---

Test system: S. lividans pCAO200SU1-FeS-B#9
PROCEDURE SUMMARY: Percent conversion of non-sulfonylurea herbicides (Example 29)
Type: in vitro ADME, Streptomyces lividans
RECORDED CONDITIONS: 3.0 mg herbicide in 25 ml broth; 18 hours
Method: This experiment was performed as in Example 17 with the following changes. Separate cultures (50 ml) inoculated with S. lividans C37, S. lividans transformed with pCAO200SU1-FeS-B#9, or S. griseolus ATCC11796 were cultured in sporulation broth for 18 hours at 30° C. with shaking. […] Each culture was reincubated for 18 hours, then an aliquot of the medium was withdrawn and analyzed by HPLC. The percent conversion of herbicide was determined.
MEASURE: Percent Conversion (%)
Form entry: value (%) — number only.

Look over these answered cases.
MOLECULE: Cc1cc(C)n2nc(S(=O)(=O)Nc3c(C)cccc3Cl)nc2n1
TARGET UNDER TEST: S. lividans pCAO200SU1-FeS-B#9
Percent Conversion (%): 88
//
MOLECULE: CCc1cnc(C2=NC(C)(C(C)C)C(=O)N2)c(C(=O)O)c1 (stereo not shown)
TARGET UNDER TEST: S. lividans pCAO200SU1-FeS-B#9
Percent Conversion (%): 69
//
MOLECULE: Cc1cc(C)nc(S(=O)(=O)Nc2c(Cl)cccc2Cl)n1
TARGET UNDER TEST: S. lividans pCAO200SU1-FeS-B#9
Percent Conversion (%): 100

Now look at this one.
Notebook: CC(C)C1(C)N=C(c2nc3ccccc3cc2C(=O)O)NC1=O (stereo not shown) , Percent Conversion read as 96

---

Quick reference for concentration in supernatant among some compounds
Test system: S. lividans pCAO200
PROCEDURE SUMMARY: Sulfonylurea metabolism by washed cell suspension (Examples 6-9)
Assay type: in vitro ADME, Streptomyces lividans
RECORDED CONDITIONS: substrate 10006; 6 h
Note: state the figure and append the unit.

Look over these answered cases.
COMPOUND SMILES: COC(=O)c1ccccc1S(=O)(=O)NC(=O)Nc1nc(C)nc(OC)n1
RESULT: 375 µM

COMPOUND SMILES: COC(=O)c1ccccc1S(=O)(=O)NC(=O)Nc1nc(CO)nc(OC)n1
RESULT: 0 µM

COMPOUND SMILES: COc1nc(C)nc(=NC(=O)NS(=O)(=O)c2ccccc2C(=O)O)[nH]1
RESULT: 0 µM

Now look at this one.
Notebook: `COC(=O)c1ccccc1S(=O)(=O)NC(=O)Nc1nc(C)nc(O)n1` , concentration in supernatant read as 1 µM

---

Test system: S. lividans pCAO200SU1-FeS-B#9
PROCEDURE SUMMARY: Percent conversion of herbicides by cultures (Example 16)
Type: in vitro ADME, Streptomyces lividans
RECORDED CONDITIONS: 3.0 mg herbicide in 25 ml broth; 24 hours
Procedure: Separate cultures (50 ml) inoculated with S. lividans C37, S. lividans transformed with pCAO200SU1-FeS-B#9, S. griseolus ATCC11796, S. griseolus PH2003 transformed with pIJ425, or S. ariseolus PH2003 transformed with pCS325 were cultured in sporulation broth for 18 hours at 30° C. with shaking. […] Each culture was reincubated for 24 hours, then an aliquot of the medium was withdrawn and analyzed by HPLC. The percent conversion of herbicide was determined.
MEASURE: Percent Conversion (%)
Form entry: value (%) — number only.

COMPOUND: COC(=O)C1Cc2c(c(Cl)cc(F)c2N2C(=O)C3=C(CCCC3)C2=O)O1 (centres unmarked)
MEASUREMENT UNIT: %
Percent Conversion: 19

COMPOUND: N#Cc1cc(Br)c(O)c(Br)c1 [compound 10023, 3,5-dibromo-4-hydroxybenzonitrile]
MEASUREMENT UNIT: %
Percent Conversion: 0

COMPOUND: CCNc1nc(Cl)nc(NC(C)(C)C#N)n1
MEASUREMENT UNIT: %
Percent Conversion: 23

COMPOUND: C[n+]1cccnc1[O-]
MEASUREMENT UNIT: %
Percent Conversion: 42

COMPOUND: Cc1ccc(NC(=O)N(C)C)cc1Cl
MEASUREMENT UNIT: %
Percent Conversion: 35

COMPOUND: CN(C)c1nc(=O)n(C2CCCCC2)c(=O)n1C
MEASUREMENT UNIT: %
Percent Conversion: 47

COMPOUND: CCOC(=O)c1ccccc1S(=O)(=O)NC(=O)Nc1nc(Cl)cc(OC)n1
MEASUREMENT UNIT: %
Percent Conversion: 56

Now look at this one.
For the compound `CSc1nnc(C(C)(C)C)c(=O)n1N` , the measured Percent Conversion on S. lividans pCAO200SU1-FeS-B#9 was 56
